- protocolSummary: Toxicokinetic evaluation in pregnant rabbits (Example 4)
- Type: in vivo, rabbit
- assaySetup: female, New Zealand White, rabbit, plasma, po, 125 mg/kg/day, GD 18, belumosudil 125 mg base/kg oral
outcomeMeasure: Cmax (µg/mL)

[[record]]
compound = "CC(C)NC(=O)COc1cccc(-c2nc(Nc3ccc4[nH]ncc4c3)c3ccccc3n2)c1 [belumosudil]"
unitspec = "µg/mL"
resultnumber = 1.67


----------
- protocolSummary: Toxicokinetic analysis in rat plasma (Example 5)
- Assay type: in vivo
- assaySetup: Day 1, belumosudil 275 mg base/kg, F
outcomeMeasure: AUC0-24 in rat plasma (ng·h/mL)

[[record]]
smilesrecord = "CC(C)NC(=O)COc1cccc(-c2nc(Nc3ccc4[nH]ncc4c3)c3ccccc3n2)c1"
outcomemeasure = "AUC0-24 in rat plasma"
unitspec = "ng·h/mL"
resultnumber = 122000

[[record]]
smilesrecord = "O=C(O)COc1cccc(-c2nc(Nc3ccc4[nH]ncc4c3)c3ccccc3n2)c1"
outcomemeasure = "AUC0-24 in rat plasma"
unitspec = "ng·h/mL"
resultnumber = 11500

